# Measured on: 15-PGDH/HPGD (Homo sapiens (Human))
# Sequence (P15428 whole entry): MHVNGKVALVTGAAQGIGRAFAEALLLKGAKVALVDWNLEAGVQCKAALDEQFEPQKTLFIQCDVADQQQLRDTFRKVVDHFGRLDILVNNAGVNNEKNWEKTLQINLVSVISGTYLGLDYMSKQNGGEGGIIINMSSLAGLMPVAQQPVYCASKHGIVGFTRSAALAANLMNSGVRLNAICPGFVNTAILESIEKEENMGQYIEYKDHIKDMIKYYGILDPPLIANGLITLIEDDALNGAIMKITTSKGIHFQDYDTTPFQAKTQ
# Test: hPGDH inhibitor screening biochemical assay
# Stated conditions: read-out: hPGDH: Average IC50

Compound	IC50
COCCNC(=O)c1ccc(-n2ccc3cc(C(=O)N4CCCCC4)cnc32)cc1	< 100 nM
COc1ccccc1C(=O)Nc1ccc(C(=O)N2CCC(F)(F)CC2)cc1	100 to 1000 nM
COc1ccc(-n2ccc3c(NCc4ccccc4)c(C(=O)N4CCCCC4)cnc32)cc1	100 to 1000 nM
O=C(c1cnc2c(c1)ncn2-c1ccc(O)cc1)N1CCC(F)CC1	100 to 1000 nM
COc1ccc(-n2cnc3cc(C(=O)N4CCCCC4)ccc32)cc1	< 100 nM
NC(=O)c1cncc(-n2cc(Cl)c3cc(C(=O)N4CCC(F)(F)CC4)cnc32)c1	< 100 nM
O=C(c1cnc2c(c(Cl)cn2-c2cnccn2)c1Cl)N1CCC(F)CC1	< 100 nM
COc1ccc(-n2c(C)nc3cc(C(=O)N4CCCCC4)ccc32)cc1	< 100 nM
COc1ccc(-n2cnc3cc(C(=O)N4CCCCC4)ccc32)cc1Cl	< 100 nM
O=C(c1cnc2c(ccn2-c2ccc(-c3nnn[nH]3)nc2)c1)N1CCC(F)(F)CC1	< 100 nM
N/C(=N\O)c1cccc(-n2ccc3cc(C(=O)N4CCCCC4)cnc32)c1	< 100 nM
N#Cc1ccc(-n2ccc3cc(C(=O)N4CC[C@@H](F)C4)cnc32)cc1 (single isomer, unassigned)	< 100 nM
O=C(c1ccc2c(c1)c(Cl)cn2-c1cccc(Cl)c1)N1CCCCC1	< 100 nM
O=C(c1cnc2c(ccn2-c2ccncn2)c1)N1CCC(F)CC1	< 100 nM
N#Cc1ccc(-n2cnc3cc(C(=O)N4CCC(F)(F)CC4)cnc32)cc1	< 100 nM
NC(=O)c1cccc(-n2ccc3cc(C(=O)N4CCC(F)CC4)cnc32)c1	< 100 nM
COc1ccc(-c2cn(C)c3cc(C(=O)N4CCC(F)CC4)cnc23)cc1	100 to 1000 nM
CN(C)c1cccc(-n2ccc3cc(C(=O)N4CCCCC4)cnc32)c1	< 100 nM
O=C(c1ccc2c(c1)ncn2-c1cccc(Cl)c1)N1CCC1	100 to 1000 nM
COc1ccc(-n2ncc3cc(C(=O)N4CCCCC4)ccc32)cc1	< 100 nM
COc1ccc(-n2ccc3cc(C(=O)N4C[C@H](C)C[C@H](C)C4)cnc32)cc1	< 100 nM
COc1cccc(-n2ccc3cc(C(=O)N4CCCCC4)cnc32)c1	< 100 nM
COc1ccc(-c2c[nH]c3cc(C(=O)N4CCC(F)CC4)cnc23)cc1	100 to 1000 nM
O=C(c1ccc2c(c1)ncn2-c1cccc(Cl)c1)N1CCCCCC1	< 100 nM
O=C(NC(CO)CO)c1ccc(-n2ccc3cc(C(=O)N4CCC(F)(F)CC4)cnc32)cc1	< 100 nM
CCc1nc2cc(C(=O)N3CCC(F)CC3)ccc2n1-c1ccc(OC)cc1	< 100 nM
COc1ccc(-n2ccc3cc(C(=O)N4CC(c5ccccc5)C4)cnc32)cc1	≥ 1000 nM
COc1ccc(-n2nnc3cc(C(=O)N4CCC(F)CC4)ccc32)cc1	< 100 nM
CCC(CC)n1cnc2cc(C(=O)N3CCCCC3)cnc21	100 to 1000 nM
COc1ccc(-n2c(CCNC(C)=O)nc3cc(C(=O)N4CCC(F)CC4)cnc32)cc1	≥ 1000 nM
O=C(O)c1cccc(-n2ccc3cc(C(=O)N4CCC(F)(F)CC4)cnc32)c1	< 100 nM
O=C(c1cnc2c(ccn2-c2ccc3c(c2)OC(F)(F)O3)c1)N1CCCCC1	< 100 nM
O=C(c1cnc2c(-c3cccc(Cl)c3)cnn2c1)N1CCCCC1	< 100 nM
O=C(c1ccc(COc2ccccc2-c2cnc[nH]2)cc1)N1CCCCC1	< 100 nM
COc1ccc(-n2cnc3cc(C(=O)N4CCC(F)CC4)ccc32)nc1	< 100 nM
COc1ccc(-n2ccc3c(C)c(C(=O)N4CCCCC4)cnc32)cc1	< 100 nM
